The reported measurements were obtained from patent US8362000B2.

Target: mutant MGL (Homo sapiens, UniProt Q99685, L169S/L176S)
Sequence (Q99685 1-303 L169S/L176S): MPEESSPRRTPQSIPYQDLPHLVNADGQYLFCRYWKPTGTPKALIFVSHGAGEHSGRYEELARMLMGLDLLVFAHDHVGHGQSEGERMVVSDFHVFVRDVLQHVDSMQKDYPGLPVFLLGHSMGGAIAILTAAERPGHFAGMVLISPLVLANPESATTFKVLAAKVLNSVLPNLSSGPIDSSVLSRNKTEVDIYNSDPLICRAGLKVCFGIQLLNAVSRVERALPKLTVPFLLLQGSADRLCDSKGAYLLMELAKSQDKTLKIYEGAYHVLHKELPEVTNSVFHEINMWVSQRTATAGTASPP
Test: MGL ThermoFluor assay - mutant
Assay type: binding
Conditions: ThermoFluor concentration-response, read-out: MGL mutant ThermoFluor Kd
Consider the following molecules and their measured Kd readings.

{"molecule": "O=C(c1ccc(CS(=O)(=O)c2cccc(C(F)(F)F)c2)cc1)N1CC(N2CCN(C(=O)c3cscn3)CC2)C1", "relation-symbol": "=", "Kd / nM": 20000}
{"molecule": "O=C(c1ccc2c(c1)[nH]c(=O)n2C1CCC(F)(F)CC1)N1CC(N2CCN(C(=O)c3cscn3)CC2)C1", "relation-symbol": "=", "Kd / nM": 83}
{"molecule": "Cc1ccc2sc(C(=O)N3CC(N4CCN(C(=O)c5cscn5)CC4)C3)c(C(F)(F)F)c2c1", "relation-symbol": "=", "Kd / nM": 31}
{"molecule": "O=C(c1ccccc1)N1CCN(C2CN(C(=O)c3ccc(OCc4ccccc4)cc3)C2)CC1", "relation-symbol": "=", "Kd / nM": 83.3}
{"molecule": "O=C(c1ccc(C2CCCCC2)cc1)N1CC(N2CCN(C(=O)c3nccs3)CC2)C1", "relation-symbol": "=", "Kd / nM": 2}
{"molecule": "O=C(c1nccs1)N1CCN(C2CN(C(=O)c3sc4ccc(-c5ccccc5)cc4c3F)C2)CC1", "relation-symbol": "=", "Kd / nM": 2}
{"molecule": "O=C(c1ccc(F)c(Cc2ccc(C(F)(F)F)cc2)c1)N1CC(N2CCN(C(=O)c3nccs3)CC2)C1", "relation-symbol": "=", "Kd / nM": 259}
{"molecule": "O=C(c1ccc2c(ccn2-c2ncc(F)cn2)c1)N1CC(N2CCN(C(=O)c3cscn3)CC2)C1", "relation-symbol": "=", "Kd / nM": 43}
{"molecule": "O=C(c1nccs1)N1CCN(C2CN(C(=O)C3CCC(c4ccc(Cl)cc4)CC3)C2)CC1 (centres unmarked)", "relation-symbol": "=", "Kd / nM": 53}
{"molecule": "O=C(c1ccccc1)N1CCN(C2CN(C(=O)c3ccc(Oc4ccc(Cl)c(Cl)c4)cc3)C2)CC1", "relation-symbol": "=", "Kd / nM": 53.2}
{"molecule": "O=C(c1cc(F)cc(Br)c1)N1CC(N2CCN(C(=O)c3nccs3)CC2)C1", "relation-symbol": "=", "Kd / nM": 1320}
{"molecule": "Cc1nc2cc(C(=O)N3CC(N4CCN(C(=O)c5nccs5)CC4)C3)ccc2n1C1CCCCC1", "relation-symbol": "=", "Kd / nM": 2}
{"molecule": "O=C(c1ccccc1)N1CCN(C2CN(C(=O)c3cccc(CNc4ccccc4F)c3)C2)CC1", "relation-symbol": "=", "Kd / nM": 542}
{"molecule": "O=C(c1cc(-c2ccccc2)cc(C(F)(F)F)c1)N1CC(N2CCN(C(=O)c3cscn3)CC2)C1", "relation-symbol": "=", "Kd / nM": 667}
{"molecule": "O=C(c1ccc(Oc2ccccn2)cc1)N1CC(N2CCN(C(=O)c3nccs3)CC2)C1", "relation-symbol": "=", "Kd / nM": 1000}
{"molecule": "O=C(c1ccccc1)N1CCN(C2CN(C(=O)c3ccc(Oc4cccc(Cl)c4)cc3)C2)CC1", "relation-symbol": "=", "Kd / nM": 250}
{"molecule": "Cc1c(C(=O)N2CC(N3CCN(C(=O)c4nccs4)CC3)C2)oc2c(F)cccc12", "relation-symbol": "=", "Kd / nM": 2110}
{"molecule": "O=C(c1cccc(-c2ccc(C(F)(F)F)cc2)c1)N1CC(N2CCN(C(=O)c3cscn3)CC2)C1", "relation-symbol": "=", "Kd / nM": 5190}
{"molecule": "O=C(c1cc(Br)cc(C(F)(F)F)c1)N1CC(N2CCN(C(=O)c3nccs3)CC2)C1", "relation-symbol": "=", "Kd / nM": 1330}
{"molecule": "O=C(c1ccc(-c2ccccc2)cc1)N1CCN(C2CN(C(=O)c3ncco3)C2)CC1", "relation-symbol": "=", "Kd / nM": 523}
{"molecule": "O=C(c1ccccc1)N1CCN(C2CN(C(=O)c3ccccc3C3CCNC3)C2)CC1 (centres unmarked)", "relation-symbol": ">", "Kd / nM": 76700}
{"molecule": "O=C(c1nccs1)N1CCN(C2CN(C(=O)c3sc4ccc5ccccc5c4c3Cl)C2)CC1", "relation-symbol": "=", "Kd / nM": 1}
{"molecule": "O=C(c1ccc(-c2cccc(C(F)(F)F)c2)cc1)N1CCN(C2CN(C(=O)c3ccc[nH]3)C2)CC1", "relation-symbol": "=", "Kd / nM": 10}
{"molecule": "Cn1nc(-c2ccc(F)cc2)c2cc(C(=O)N3CC(N4CCN(C(=O)c5nccs5)CC4)C3)ccc21", "relation-symbol": "=", "Kd / nM": 23}
{"molecule": "O=C(c1ccc(Sc2cccc(C(F)(F)F)c2)cc1)N1CC(N2CCN(C(=O)c3cscn3)CC2)C1", "relation-symbol": "=", "Kd / nM": 25}
{"molecule": "O=C(c1ccccc1)N1CCN(C2CN(C(=O)c3ccc(S(=O)(=O)c4cccc(C(F)(F)F)c4)cc3)C2)CC1", "relation-symbol": "=", "Kd / nM": 162}
{"molecule": "O=C(c1ccc2c(c1)[nH]c(=O)n2-c1ccc(C(F)(F)F)cc1)N1CC(N2CCN(C(=O)c3nccs3)CC2)C1", "relation-symbol": "=", "Kd / nM": 12}
{"molecule": "O=C(c1ccccc1)N1CCN(C2CN(C(=O)c3ccc(-n4cnc5ccccc54)cc3)C2)CC1", "relation-symbol": "=", "Kd / nM": 1000}
{"molecule": "O=C(c1ccc(-c2ccccc2)cc1)N1CC(N2CCN(C(=O)c3cscn3)CC2)C1", "relation-symbol": "=", "Kd / nM": 46.6}
{"molecule": "O=C(c1ccc2c(ccn2-c2ccc(F)cc2F)c1)N1CC(N2CCN(C(=O)c3nccs3)CC2)C1", "relation-symbol": "=", "Kd / nM": 1}
{"molecule": "O=C(c1ccccc1)N1CCN(C2CN(C(=O)c3ccc(=O)n(Cc4ccccc4)c3)C2)CC1", "relation-symbol": ">", "Kd / nM": 31200}
{"molecule": "Cc1ccc(C(=O)N2CCN(C3CN(C(=O)c4ccc(-c5ccccc5)cc4)C3)CC2)s1", "relation-symbol": "=", "Kd / nM": 250}
